target: T1, Fc-G236A-MST-HN (human, UniProt P01857-1 104-330 = IgG part, G236A; M252Y; S254T; T256E; H433K; N434F); experiment: SPR (IBIS MX96), FcγR captured on sensor, Fc fragment titrated, pH 7.4, equilibrium 1:1 fit
T1 construct: domain: Fc fragment; EU numbering
pKd: −log10 of the molar value.
Please respond with reported pKd for every item in the list.

Return pKd (reported value) for this binder: human FcγRIIIb-NA1 (receptor, UniProt O75015 17-200, looked up, C-terminal biotin, In-house, C-terminally biotinylated; captured on a streptavidin sensor; also called hFcγRIIIb-NA1) GMRTEDLPKAVVFLEPQWYRVLEKDSVTLKCQGAYSPEDNSTQWFHNENLISSQASSYFIDAATVDDSGEYRCQTNLSTLSDPVQLEVHVGWLLLQAPRWVFKEEDPIHLRCHSWKNTALHKVTYLQNGKDRKYFHHNSDFHIPKATLKDSGSYFCRGLVGSKNVSSETVNITITQGLAVSTIS
< 5.70

Return pKd (reported value) for this binder: human FcγRIIb (receptor, UniProt P31994 43-217, looked up, C-terminal biotin, Bought, C-terminally biotinylated; captured on a streptavidin sensor; also called hFcγRIIb) TPAAPPKAVLKLEPQWINVLQEDSVTLTCRGTHSPESDSIQWFHNGNLIPTHTQPSYRFKANNNDSGEYTCQTGQTSLSDPVHLTVLSEWLVLQTPHLEFQEGETIVLRCHSWKDKPLVKVTFFQNGKSKKFSRSDPNFSIPQANHSHSGDYHCTGNIGYTLYSSKPVTITVQAP
< 5.70

Return pKd (reported value) for this binder: human FcγRIIIb-NA2 (receptor, UniProt O75015 17-200, looked up, C-terminal biotin, In-house, C-terminally biotinylated; captured on a streptavidin sensor; also called hFcγRIIIb-NA2) GMRTEDLPKAVVFLEPQWYSVLEKDSVTLKCQGAYSPEDNSTQWFHNESLISSQASSYFIDAATVNDSGEYRCQTNLSTLSDPVQLEVHIGWLLLQAPRWVFKEEDPIHLRCHSWKNTALHKVTYLQNGKDRKYFHHNSDFHIPKATLKDSGSYFCRGLVGSKNVSSETVNITITQGLAVSTIS
< 5.70

Data origin, for the record: patent US20250101111A1
